For Cytochrome P450 2C9 (Homo sapiens, UniProt P11712), measured AC50 is reported for the entries below.

Compound	Endpoint	Readout value
O=C(CNS(=O)(=O)c1cccs1)N1CCC2(CC1)OCCO2	AC50	39.8 µM (inconclusive)
CC(=O)Nc1ccc(Sc2ncccc2C(=O)Nc2ccc(F)cc2)cn1	AC50	10 µM (inconclusive)
COc1ccc(O[C@H]2C=C[C@@H](c3ccccc3)O[C@H]2COC(=O)CC/C(C)=N\O[C@@H](C)CN2CCCc3nc(C)c(C)cc32)cc1	AC50	3.98 µM (inconclusive)

So for Cc1nn(-c2ccc(Cl)cc2)c2sc(C(=O)c3c(N)n(C)c(=O)n(C)c3=O)cc12 , the logged AC50 turned out to be 25.1 µM (inconclusive)

Per the record, COc1ccc(N2CCN(C(S)=Nc3cccc(C)c3)CC2)cc1 has AC50 of 0.00562 µM (inconclusive)

Data point: CC(=O)N1CCC2(CC1)CCN(c1ccncc1)CC2 ; AC50 = 25.1 µM (inconclusive)

So for Cc1cccc(NC(=O)C2CCN(S(=O)(=O)c3cccc4nsnc34)CC2)n1 , the logged AC50 turned out to be 14.1 µM (inconclusive)

Notebook: CCC(=O)NCCNC(=O)c1c(SC)nsc1SC , AC50 read as 12.6 µM (inconclusive)

Note to self: AC50 recorded for Cc1ccc(Nc2nnc(-c3ccc4c(c3)OCO4)o2)c(C)c1 was 7.94 µM (inconclusive)

The value of AC50 measured for the compound COc1cc(NC(=O)c2cc3ccccc3o2)c(OC)cc1Br turned out to be 0.112 µM (inconclusive)

Looking up CC(=O)Nc1ccc(C2=NN(CC#N)C(=O)SC2)cc1 , I see its AC50 listed as 8.91 µM (inconclusive)

Record O=C(OCc1cccc(F)c1)c1ccc2c(c1)-c1ccccc1C2=O , field AC50: 10 µM (inconclusive)

* * *

- Assay target: Peroxisome proliferator-activated receptor gamma/Nuclear receptor coactivator 1 (Homo sapiens, UniProt P37231);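 further: agonist potency as compounds enhance coactivator SRC-1 recruitment to PPARgamma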
- Sequence (P37231 whole entry): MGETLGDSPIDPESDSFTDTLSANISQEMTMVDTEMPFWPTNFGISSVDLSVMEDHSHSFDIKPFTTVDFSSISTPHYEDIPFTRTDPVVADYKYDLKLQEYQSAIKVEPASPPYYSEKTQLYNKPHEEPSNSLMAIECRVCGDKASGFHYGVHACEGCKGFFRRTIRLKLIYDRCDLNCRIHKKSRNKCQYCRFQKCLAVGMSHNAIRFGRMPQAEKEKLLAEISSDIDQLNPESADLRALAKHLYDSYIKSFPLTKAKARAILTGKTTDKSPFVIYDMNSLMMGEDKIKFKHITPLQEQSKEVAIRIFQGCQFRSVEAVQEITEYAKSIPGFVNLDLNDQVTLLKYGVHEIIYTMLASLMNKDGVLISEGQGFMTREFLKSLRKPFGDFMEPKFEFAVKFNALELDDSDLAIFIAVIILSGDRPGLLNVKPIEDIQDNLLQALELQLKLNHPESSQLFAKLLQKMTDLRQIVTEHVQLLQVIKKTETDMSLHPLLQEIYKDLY
- Sequence (Q15788 whole entry, further chain): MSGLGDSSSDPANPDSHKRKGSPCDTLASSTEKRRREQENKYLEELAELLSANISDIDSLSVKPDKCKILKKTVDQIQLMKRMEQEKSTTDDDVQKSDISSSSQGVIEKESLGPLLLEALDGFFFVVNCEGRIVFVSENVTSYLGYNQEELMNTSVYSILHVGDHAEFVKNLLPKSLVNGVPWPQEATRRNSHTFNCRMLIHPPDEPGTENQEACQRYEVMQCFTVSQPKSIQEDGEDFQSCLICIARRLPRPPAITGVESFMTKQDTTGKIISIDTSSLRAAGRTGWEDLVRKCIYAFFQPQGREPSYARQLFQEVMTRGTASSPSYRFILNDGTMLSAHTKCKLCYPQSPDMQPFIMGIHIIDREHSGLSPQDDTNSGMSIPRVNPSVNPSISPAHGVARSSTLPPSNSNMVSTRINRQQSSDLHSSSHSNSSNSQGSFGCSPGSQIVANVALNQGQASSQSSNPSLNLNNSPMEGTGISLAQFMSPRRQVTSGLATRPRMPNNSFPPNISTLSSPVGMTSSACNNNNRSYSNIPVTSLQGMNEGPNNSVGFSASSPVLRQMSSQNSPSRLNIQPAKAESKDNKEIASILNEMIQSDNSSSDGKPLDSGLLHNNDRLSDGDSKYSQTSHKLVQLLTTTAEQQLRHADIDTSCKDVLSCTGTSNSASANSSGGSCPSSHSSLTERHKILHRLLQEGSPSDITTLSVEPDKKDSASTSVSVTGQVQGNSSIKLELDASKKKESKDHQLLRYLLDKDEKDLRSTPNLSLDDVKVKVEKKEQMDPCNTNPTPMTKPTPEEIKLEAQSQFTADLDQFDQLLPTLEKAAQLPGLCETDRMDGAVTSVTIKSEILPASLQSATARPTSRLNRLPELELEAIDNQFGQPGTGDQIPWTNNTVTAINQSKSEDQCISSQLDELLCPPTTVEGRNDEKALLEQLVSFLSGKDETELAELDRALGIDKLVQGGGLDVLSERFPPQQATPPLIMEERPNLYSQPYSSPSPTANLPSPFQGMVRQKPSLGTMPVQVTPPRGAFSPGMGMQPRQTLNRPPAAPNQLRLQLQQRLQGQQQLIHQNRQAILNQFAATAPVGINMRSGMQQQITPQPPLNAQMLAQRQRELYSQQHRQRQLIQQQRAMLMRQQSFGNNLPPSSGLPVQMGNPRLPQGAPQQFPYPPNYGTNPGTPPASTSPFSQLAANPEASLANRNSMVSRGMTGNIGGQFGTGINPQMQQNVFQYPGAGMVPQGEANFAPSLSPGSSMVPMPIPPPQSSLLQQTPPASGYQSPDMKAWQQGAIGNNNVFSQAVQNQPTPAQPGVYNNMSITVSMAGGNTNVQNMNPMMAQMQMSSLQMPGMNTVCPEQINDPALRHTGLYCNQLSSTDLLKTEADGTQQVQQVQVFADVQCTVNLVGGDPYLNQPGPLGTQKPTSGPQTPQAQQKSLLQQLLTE
- Assay type: functional
Endpoint: EC50

# count of solved cases: 5
Structure smiles string	EC50
CCOC(=O)Cn1/c(=N/C(=O)c2sc3ccccc3c2Cl)sc2cc(S(N)(=O)=O)ccc21	11.3 µM (not active)
Cc1ccc(CNC(=O)COc2ccc(C(=O)c3ccc(F)cc3)cc2)cc1	> 79.4 µM (not active)
COc1ccc(-c2c(C#N)c(C)nc3c2C(=O)c2ccccc2-3)cc1	55.3 µM (not active)
Cc1nn(-c2ccc(Cl)cc2)c2sc(C(=O)c3c(N)n(C)c(=O)n(C)c3=O)cc12	18.4 µM (not active)
N#Cc1c(N)nc(SCC(=O)NC2CCCCC2)c(C#N)c1-c1ccc(Cl)cc1	34.6 µM (not active)

// EC50 lookup, molecule = CC(C)(C)c1cc(C(=S)N2CCN(CCO)CC2)cc(C(C)(C)C)c1O , result: > 79.4 µM (not active)

* * *

- Assay target: Replicative DNA helicase DnaB (Mycobacterium tuberculosis, UniProt P9WMR3)
- Test method notes: DnaB intein splicing inhibitors, dose response, biochemical, cell-free fluorescence (AID 449749)
- Assay type: functional
Calls of active or inactive are those of the source.
I would appreciate it if you answered using one of these outcomes: y for active, n for inactive

Compound	Group
CC(Oc1ccc(F)cc1)C(=O)Oc1ccc(N(C)S(=O)(=O)c2ccccc2)cc1 (centres undefined)	y
O=C1c2ccccc2-c2onc3ccc(N4CCCC4)c1c23	n
O=C1CC(c2ccccc2)=NN1c1ccc([N+](=O)[O-])cc1	y

Next, consider the following compound.
Hey, what did the test say about CCc1n[nH]c2c1C1(CCN(C(=O)c3ccccc3)CC1)C(C#N)=C(N)O2 ?
y

* * *

- Assay target: RNA-binding protein pos-1 (Caenorhabditis elegans)
- Sequence (G5EF15 whole entry): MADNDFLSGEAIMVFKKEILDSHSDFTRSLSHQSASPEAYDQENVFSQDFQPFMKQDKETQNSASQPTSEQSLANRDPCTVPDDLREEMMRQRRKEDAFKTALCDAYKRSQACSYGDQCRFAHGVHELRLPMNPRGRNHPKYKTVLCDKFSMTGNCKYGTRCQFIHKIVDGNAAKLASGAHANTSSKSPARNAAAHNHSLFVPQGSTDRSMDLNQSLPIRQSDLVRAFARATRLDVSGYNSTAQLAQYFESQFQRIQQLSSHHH
- Test method notes: disruptors of C. elegans POS-1 RNA interaction – biochemical, fluorescence polarization, dose response (AID 1964);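 further: purified POS-1 fused to maltose binding protein made in E. coli; potency of compounds blocking POS-1 binding to fluorescent RNA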
The source made the active and inactive calls.
Endpoint: EC50

Molecule	Assay target	Readout value
O=S(=O)(c1ccccc1)N1CCC(O)(CSc2ccc(Cl)cc2)CC1	RNA-binding protein pos-1 (Caenorhabditis elegans)	> 300 µM (not active)
CCOC(=O)c1c(-c2ccccc2)csc1NC(=O)/C(C#N)=C/c1ccc(OC)c(OC)c1	RNA-binding protein pos-1 (Caenorhabditis elegans)	> 300 µM (not active)
CCOc1ccc(C2OC34CCCCC3C(C#N)(C#N)C2(C#N)C(=N)O4)cc1OC (stereo not given)	RNA-binding protein pos-1 (Caenorhabditis elegans)	11.8 µM (active)
O=C(NNc1ccccc1)C(=O)NNS(=O)(=O)c1ccc([N+](=O)[O-])cc1	RNA-binding protein pos-1 (Caenorhabditis elegans)	21.1 µM (active)
Cc1cccc(NC2=Nc3ccccc3N3C2=Nc2c(c(C)nn2-c2ccccc2)C3c2ccc(O)c(O)c2)c1 (stereo not given)	RNA-binding protein pos-1 (Caenorhabditis elegans)	46.4 µM (active)
COc1ccc(C(=O)/C=C/Nc2ccc([N+](=O)[O-])cc2C)cc1OC	RNA-binding protein pos-1 (Caenorhabditis elegans)	54.6 µM (active)
CN(C)c1ccnc(Oc2ccc(Cl)cc2)c1C#N	RNA-binding protein pos-1 (Caenorhabditis elegans)	> 300 µM (not active)
CCNc1nn2ccccc2c1/C=C(\C#N)C(=O)OCC	RNA-binding protein pos-1 (Caenorhabditis elegans)	> 300 µM (not active)

The molecule identified as Brc1ccc(C2=CC(c3ccco3)n3ncnc3N2)cc1 (stereo not given) registered its EC50 at > 300 µM (inconclusive)

Summary for this molecule, O=Cc1c(-c2ccccc2)nc2ccccn12 : EC50 is > 300 µM (not active)

* * *

- Assay target: Voltage-dependent T-type calcium channel subunit alpha-1H (Homo sapiens, UniProt O95180);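 further: channel activity triggered by adding a high calcium stimulation buffer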
- Sequence (O95180 whole entry): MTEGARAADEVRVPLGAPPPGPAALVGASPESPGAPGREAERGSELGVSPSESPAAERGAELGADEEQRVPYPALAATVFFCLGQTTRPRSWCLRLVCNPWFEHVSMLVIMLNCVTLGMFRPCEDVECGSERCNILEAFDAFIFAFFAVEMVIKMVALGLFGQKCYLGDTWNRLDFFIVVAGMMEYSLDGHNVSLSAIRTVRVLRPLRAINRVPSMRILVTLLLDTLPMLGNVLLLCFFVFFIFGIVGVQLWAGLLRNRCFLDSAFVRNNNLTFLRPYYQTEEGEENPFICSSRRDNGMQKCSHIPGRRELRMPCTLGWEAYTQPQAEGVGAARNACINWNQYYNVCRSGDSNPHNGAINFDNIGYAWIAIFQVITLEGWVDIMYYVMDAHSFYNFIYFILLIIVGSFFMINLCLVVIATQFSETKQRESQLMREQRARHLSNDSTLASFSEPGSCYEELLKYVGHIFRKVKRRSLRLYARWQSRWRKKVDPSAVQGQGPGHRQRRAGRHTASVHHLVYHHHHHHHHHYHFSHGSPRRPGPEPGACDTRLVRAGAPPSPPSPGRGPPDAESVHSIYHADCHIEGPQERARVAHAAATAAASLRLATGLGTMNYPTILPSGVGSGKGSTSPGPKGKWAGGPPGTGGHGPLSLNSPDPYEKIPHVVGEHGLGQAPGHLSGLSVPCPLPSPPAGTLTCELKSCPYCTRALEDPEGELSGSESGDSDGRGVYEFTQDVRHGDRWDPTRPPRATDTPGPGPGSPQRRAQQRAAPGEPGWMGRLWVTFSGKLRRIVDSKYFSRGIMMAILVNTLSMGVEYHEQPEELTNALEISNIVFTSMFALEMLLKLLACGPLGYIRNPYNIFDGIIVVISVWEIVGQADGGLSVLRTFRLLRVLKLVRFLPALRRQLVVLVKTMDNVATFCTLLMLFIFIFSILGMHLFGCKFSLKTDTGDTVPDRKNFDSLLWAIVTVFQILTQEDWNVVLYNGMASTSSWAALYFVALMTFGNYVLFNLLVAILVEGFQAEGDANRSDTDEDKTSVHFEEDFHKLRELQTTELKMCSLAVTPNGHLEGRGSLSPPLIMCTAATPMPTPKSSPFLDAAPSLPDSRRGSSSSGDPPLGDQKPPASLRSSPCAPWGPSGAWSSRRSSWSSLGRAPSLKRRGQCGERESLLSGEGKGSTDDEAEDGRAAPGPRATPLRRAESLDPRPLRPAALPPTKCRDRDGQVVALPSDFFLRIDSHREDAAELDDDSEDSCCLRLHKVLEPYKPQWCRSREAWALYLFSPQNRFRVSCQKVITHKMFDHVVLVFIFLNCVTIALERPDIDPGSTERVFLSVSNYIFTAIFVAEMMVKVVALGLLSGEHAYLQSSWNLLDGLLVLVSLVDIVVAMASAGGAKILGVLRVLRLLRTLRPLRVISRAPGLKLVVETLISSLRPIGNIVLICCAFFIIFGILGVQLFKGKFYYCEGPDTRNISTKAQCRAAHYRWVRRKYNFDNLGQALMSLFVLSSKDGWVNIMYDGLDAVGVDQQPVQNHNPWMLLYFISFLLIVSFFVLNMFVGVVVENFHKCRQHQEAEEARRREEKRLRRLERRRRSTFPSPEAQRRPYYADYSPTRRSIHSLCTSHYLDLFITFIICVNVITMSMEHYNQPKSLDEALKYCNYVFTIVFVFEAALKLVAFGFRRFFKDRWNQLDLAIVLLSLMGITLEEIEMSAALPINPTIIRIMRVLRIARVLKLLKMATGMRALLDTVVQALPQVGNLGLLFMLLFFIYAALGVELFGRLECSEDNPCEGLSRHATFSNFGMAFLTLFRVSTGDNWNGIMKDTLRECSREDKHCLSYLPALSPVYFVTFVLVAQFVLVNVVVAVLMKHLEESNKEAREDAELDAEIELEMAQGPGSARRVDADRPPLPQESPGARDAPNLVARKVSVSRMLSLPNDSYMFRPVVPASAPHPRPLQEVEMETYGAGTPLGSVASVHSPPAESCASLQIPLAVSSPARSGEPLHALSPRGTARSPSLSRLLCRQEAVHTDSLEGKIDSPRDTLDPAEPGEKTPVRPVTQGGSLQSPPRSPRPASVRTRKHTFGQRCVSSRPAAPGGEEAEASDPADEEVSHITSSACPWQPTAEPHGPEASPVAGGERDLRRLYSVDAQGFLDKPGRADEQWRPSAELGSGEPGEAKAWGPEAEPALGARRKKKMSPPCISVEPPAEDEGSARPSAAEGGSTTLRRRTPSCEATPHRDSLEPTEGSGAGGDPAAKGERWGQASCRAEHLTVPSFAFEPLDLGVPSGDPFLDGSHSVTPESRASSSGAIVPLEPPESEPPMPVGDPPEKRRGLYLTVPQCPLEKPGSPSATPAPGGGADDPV
- Assay type: functional
Calls of active or inactive are those of the source.
Endpoint: EC50

Example compounds with recorded EC50:
Compound	EC50
CCC(C)(C)n1nnnc1C(c1ccncc1)N1CCC(Cc2ccccc2)CC1 (stereo not drawn)	9.75 µM (active)
COc1cccc(N2CCN(C3CC(=O)N(c4ccc(Cl)c(Cl)c4)C3=O)CC2)c1 (stereo not drawn)	6.84 µM (active)
Cn1cc(C(=O)c2ccc(Cl)cc2Cl)cc1C(=O)NN=C(N)COc1ccccc1	3.97 µM (active)

In plain terms, Cc1ccccc1CSCCNC(=O)CCSc1ccccc1 has a documented EC50 of 3.24 µM (active)

// Cc1cccc(-c2nc(CN3CCCC(C(=O)NC4CCCCCC4)C3)c(C)o2)c1 (stereo not drawn) : EC50 value = 5.56 µM (active)

Entry COc1ccc2nc(NC(=O)C3CCCN3S(=O)(=O)c3ccc(C)cc3)sc2c1 (stereo not drawn) , EC50 reported as 57.5 µM (active)

The recorded EC50 for entry Cc1ccc(NC(=O)CSCC(=O)N2c3ccccc3CCc3ccccc32)cc1 equals 4.65 µM (active)

Lab note: measured EC50 of CC1CCN(C(=O)CSCC(=O)Nc2nc(-c3cccs3)cs2)CC1 was 2.23 µM (active)

* * *

- Assay target: Polyadenylate-binding protein 1 (Homo sapiens, UniProt P11940)
- Sequence (P11940 whole entry, the tested form may be a part): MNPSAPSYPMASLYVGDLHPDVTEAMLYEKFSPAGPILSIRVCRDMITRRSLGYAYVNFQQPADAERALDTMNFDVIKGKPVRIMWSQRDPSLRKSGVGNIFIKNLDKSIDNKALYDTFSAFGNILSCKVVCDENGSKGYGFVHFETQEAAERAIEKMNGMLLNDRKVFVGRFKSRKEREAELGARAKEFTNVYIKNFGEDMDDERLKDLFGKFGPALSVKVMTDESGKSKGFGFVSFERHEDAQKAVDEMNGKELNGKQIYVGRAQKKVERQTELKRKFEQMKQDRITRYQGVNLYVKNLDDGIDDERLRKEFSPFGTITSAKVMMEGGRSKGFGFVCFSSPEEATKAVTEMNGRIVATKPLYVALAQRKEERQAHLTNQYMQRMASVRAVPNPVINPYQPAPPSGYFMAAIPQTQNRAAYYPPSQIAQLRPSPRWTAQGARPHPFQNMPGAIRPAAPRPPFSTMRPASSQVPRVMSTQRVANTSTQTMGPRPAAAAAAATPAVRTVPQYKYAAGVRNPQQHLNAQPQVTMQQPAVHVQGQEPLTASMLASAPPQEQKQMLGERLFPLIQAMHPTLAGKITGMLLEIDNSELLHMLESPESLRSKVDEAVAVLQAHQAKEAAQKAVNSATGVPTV
- Test method notes: MLLE domain peptide-binding blockers, IC50 – biochemical, fluorescence polarization, FITC-PAM2 peptide, dose response (AID 602259)
- Type: functional
- Details: read-out: IC50_Mean
Activity calls are given as the source filed them.
Pick one and only one: active, inactive

For orientation, consider the following solved cases.
Compound	Group
O=[N+]([O-])c1cccc(C(=S)N2CCN(c3ccccc3F)CC2)c1	inactive
Cc1cscc(C)c1=S	inactive
COc1ccc2nc(N3CCCCC3)c(C#N)cc2c1	active

Then there is this compound:
Look up the recorded call for CCc1ccc2c(c1)C1(NN=C(c3ccccc3)S1)C(=O)N2 (centres undefined) in this test.
inactive

* * *

- Test method notes: Luminescence Cell-Based Dose Confirmation HTS to Identify Activators of 5'UTR Stem-Loop Driven Alpha-Synuclein mRNA Translation in H4 Neuroglioblastoma Cells. [Related pubchem assays: 1829 (Project Summary), 1814 (Primary HTS)]
- Type: functional
The source made the active and inactive calls.
Endpoint: EC50

Molecule	EC50
O=C(NCc1ccccn1)C(=O)Nc1ccccc1	46.3 µM (active)
O=C(NCC(O)c1ccccc1)c1ccc(Cl)c(S(=O)(=O)N2CCCC2)c1 (configuration not stated)	37.8 µM (active)

Cc1cc(C(=O)CSc2nc3ccccc3o2)c(C)n1C1CC1 has a reported EC50 of 35.7 µM (active)

For record O=c1c(Cl)c(Cl)cnn1Cc1nnc(-c2ccc(Cl)cc2)o1 the listed EC50 is > 120 µM (not active)

molecule Cn1cc(C(=O)N/N=C/c2ccc3c(c2)OCO3)c2ccccc21 , EC50 observed: > 120 µM (not active)

The reported EC50 of the molecule O=C(Nc1ccccc1)C1=C[C@@H](c2ccccc2)C[C@@H](OCc2ccc(CO)cc2)O1 was 7.69 µM (active)

Record O=C(CC1CCCCC1)NCc1ccccc1Cl . Reported EC50: > 120 µM (not active)
